Values were extracted from ChEMBL document CHEMBL1914423.

Test system: NCI-H522
Assay: Anticancer activity against human NCI-H522 cells after 48 hrs by SRB assay
Assay type: functional
Settings: NCI-H522, 48 h, read-out: LC50 (the source's name)
Listed here: items and their measured CC50.
Number in µM, nothing else.

Consider the following illustrative entries.
smi | study_system | CC50, µM
COc1cccc(-c2nc3sccn3c2-c2ccnc(NCCNC(=O)Nc3cccc(C(F)(F)F)c3)n2)c1 | NCI-H522 | 86.5
O=C(NCCNc1nccc(-c2c(-c3cccc(O)c3)nc3sccn23)n1)c1ccccc1 | NCI-H522 | 93.9
O=C(NCCNc1nccc(-c2c(-c3cccc(O)c3)nc3sccn23)n1)c1ccccc1O | NCI-H522 | 57

Known value: NCI-H522 CC50 of the compound `O=C(NCCNc1nccc(-c2c(-c3cccc(O)c3)nc3sccn23)n1)Nc1cccc(C(F)(F)F)c1` equals 20.9

###

Listed here: items and their measured CC50.
Test system: NCI-H322M
Assay: Anticancer activity against human NCI-H322M cells after 48 hrs by SRB assay
Assay type: functional
Details: read-out: LC50 (the source's name)

Consider the following illustrative entries.
smi | study_system | CC50
O=C(NCCNc1nccc(-c2c(-c3cccc(O)c3)nc3sccn23)n1)c1ccccc1 | NCI-H322M | > 100 µM
COc1cccc(-c2nc3sccn3c2-c2ccnc(NCCNC(=O)Nc3cccc(C(F)(F)F)c3)n2)c1 | NCI-H322M | > 100 µM
O=C(NCCNc1nccc(-c2c(-c3cccc(O)c3)nc3sccn23)n1)Nc1cccc(C(F)(F)F)c1 | NCI-H322M | > 100 µM

Attention now shifts to the item below.
Entry `O=C(NCCNc1nccc(-c2c(-c3cccc(O)c3)nc3sccn23)n1)c1ccccc1O` — recorded CC50 = 66.6 µM

###

Listed here: items and their measured GI50.
System: UACC-257
Experiment: Anticancer activity against human UACC257 cells after 48 hrs by SRB assay
Type: functional
Conditions: UACC-257, 48 h

smi | GI50
O=C(NCCNc1nccc(-c2c(-c3cccc(O)c3)nc3sccn23)n1)Nc1cccc(C(F)(F)F)c1 | 2.51 µM
O=C(NCCNc1nccc(-c2c(-c3cccc(O)c3)nc3sccn23)n1)c1ccccc1 | 0.489 µM
O=C(NCCNc1nccc(-c2c(-c3cccc(O)c3)nc3sccn23)n1)c1ccccc1O | 6.41 µM

Entry `COc1cccc(-c2nc3sccn3c2-c2ccnc(NCCNC(=O)Nc3cccc(C(F)(F)F)c3)n2)c1` — recorded GI50 = 4.34 µM

###

Tested on: SK-MEL-5
Assay: Anticancer activity against human SK-MEL-5 cells after 48 hrs by SRB assay
Assay type: functional
Details: SK-MEL-5, 48 h
Listed here: items and their measured GI50.
Number in µM, nothing else.

smi | GI50, µM
COc1cccc(-c2nc3sccn3c2-c2ccnc(NCCNC(=O)Nc3cccc(C(F)(F)F)c3)n2)c1 | 4.27
O=C(NCCNc1nccc(-c2c(-c3cccc(O)c3)nc3sccn23)n1)Nc1cccc(C(F)(F)F)c1 | 2.62
O=C(NCCNc1nccc(-c2c(-c3cccc(O)c3)nc3sccn23)n1)c1ccccc1 | 4.15

Entry `O=C(NCCNc1nccc(-c2c(-c3cccc(O)c3)nc3sccn23)n1)c1ccccc1O` — recorded GI50 = 4.57

###

System: A549
Experiment: Anticancer activity against human A549 cells after 48 hrs by SRB assay
Type: functional
Details: A549, 48 h
Listed here: items and their measured TGI.
Number in µM, nothing else.

smi | study_system | meas_value
O=C(NCCNc1nccc(-c2c(-c3cccc(O)c3)nc3sccn23)n1)Nc1cccc(C(F)(F)F)c1 | A549 | 8.44

Entry `O=C(NCCNc1nccc(-c2c(-c3cccc(O)c3)nc3sccn23)n1)c1ccccc1` — recorded TGI = 46.5

Entry `COc1cccc(-c2nc3sccn3c2-c2ccnc(NCCNC(=O)Nc3cccc(C(F)(F)F)c3)n2)c1` — recorded TGI = 17.1

Entry `O=C(NCCNc1nccc(-c2c(-c3cccc(O)c3)nc3sccn23)n1)c1ccccc1O` — recorded TGI = 49

###

Listed here: items and their measured growth at 10 µM.
Tested on: HT-29
Experiment: Anticancer activity against human HT-29 cells assessed as cell growth at 10^-5 M after 48 hrs by SRB assay
Type: functional
Settings: HT-29, 48 h, read-out: Activity
Number in %, nothing else.

Consider the following illustrative entries.
smi | unit_of_measurement | growth at 10 µM
COc1cccc(-c2nc3sccn3c2-c2ccnc(NCCNC(=O)c3ccccc3)n2)c1 | % | 53.5
O=C(NCCNc1nccc(-c2c(-c3cccc(O)c3)nc3sccn23)n1)c1ccccc1O | % | 49.2
O=C(NCCNc1nccc(-c2c(-c3cccc(O)c3)nc3sccn23)n1)c1ccccc1 | % | 65.4

Entry `COc1cccc(-c2nc3sccn3c2-c2ccnc(NCCNC(=O)Nc3cccc(C(F)(F)F)c3)n2)c1` — recorded growth at 10 µM = 44.1

Entry `COc1cccc(-c2nc3sccn3c2-c2ccnc(NCCNC(=O)c3cc(C(F)(F)F)cc(C(F)(F)F)c3)n2)c1` — recorded growth at 10 µM = 69.8

###

Test system: TK-10
Test: Anticancer activity against human TK10 cells after 48 hrs by SRB assay
Format: functional
Settings: TK-10, 48 h
Listed here: items and their measured GI50.
Number in µM, nothing else.

smi | GI50 / µM
O=C(NCCNc1nccc(-c2c(-c3cccc(O)c3)nc3sccn23)n1)c1ccccc1O | 11.6
O=C(NCCNc1nccc(-c2c(-c3cccc(O)c3)nc3sccn23)n1)Nc1cccc(C(F)(F)F)c1 | 3.66
O=C(NCCNc1nccc(-c2c(-c3cccc(O)c3)nc3sccn23)n1)c1ccccc1 | 11.7

Attention now shifts to the item below.
Entry `COc1cccc(-c2nc3sccn3c2-c2ccnc(NCCNC(=O)Nc3cccc(C(F)(F)F)c3)n2)c1` — recorded GI50 = 3.6

###

Test system: HCT-116
Assay: Anticancer activity against human HCT116 cells after 48 hrs by SRB assay
Type: functional
Details: HCT-116, 48 h, read-out: LC50 (the source's name)
Listed here: items and their measured CC50.
Number in µM, nothing else.

smi | study_system | assay_endpoint | unit_of_measurement | meas_value
O=C(NCCNc1nccc(-c2c(-c3cccc(O)c3)nc3sccn23)n1)Nc1cccc(C(F)(F)F)c1 | HCT-116 | CC50 | µM | 74.3

Attention now shifts to the item below.
Known value: HCT-116 CC50 of the molecule `O=C(NCCNc1nccc(-c2c(-c3cccc(O)c3)nc3sccn23)n1)c1ccccc1` equals 49.6

###

Test system: COLO 205
Experiment: Anticancer activity against human COLO205 cells assessed as cell growth at 10^-5 M after 48 hrs by SRB assay
Format: functional
Details: COLO 205, 48 h, read-out: Activity
Response field class: string, computed from recorded growth at 10 µM by ranges one (below 50%), two (50% to below 70%), three (70% or more)

Reference set, count: 5
smi | category_label
COc1cccc(-c2nc3sccn3c2-c2ccnc(NCCNC(=O)c3cc(C(F)(F)F)cc(C(F)(F)F)c3)n2)c1 | three
O=C(NCCNc1nccc(-c2c(-c3cccc(O)c3)nc3sccn23)n1)c1ccccc1O | two
O=C(NCCNc1nccc(-c2c(-c3cccc(O)c3)nc3sccn23)n1)Nc1cccc(C(F)(F)F)c1 | two
COc1cccc(-c2nc3sccn3c2-c2ccnc(NCCNC(=O)c3ccccc3)n2)c1 | two
COc1cccc(-c2nc3sccn3c2-c2ccnc(NCCNC(=O)c3cccc(C(F)(F)F)c3)n2)c1 | one

Ask: Bin? `O=C(NCCNc1nccc(-c2c(-c3cccc(O)c3)nc3sccn23)n1)c1cc(N2CCOCC2)cc(C(F)(F)F)c1`
Result: one

Ask: Bin? `O=C(NCCNc1nccc(-c2c(-c3cccc(O)c3)nc3sccn23)n1)c1cc(C(F)(F)F)cc(C(F)(F)F)c1`
Result: two

Ask: Bin? `COc1cccc(-c2nc3sccn3c2-c2ccnc(NCCNC(=O)Nc3ccccc3)n2)c1`
Result: three

Ask: Bin? `O=C(NCCNc1nccc(-c2c(-c3cccc(O)c3)nc3sccn23)n1)c1ccc(N2CCOCC2)c(C(F)(F)F)c1`
Result: one

Ask: Bin? `COc1cccc(-c2nc3sccn3c2-c2ccnc(NCCNC(=O)c3ccccc3O)n2)c1`
Result: three

Ask: Bin? `COc1cccc(-c2nc3sccn3c2-c2ccnc(NCCNC(=O)Nc3cccc(C(F)(F)F)c3)n2)c1`
Result: two

Ask: Bin? `O=C(NCCNc1nccc(-c2c(-c3cccc(O)c3)nc3sccn23)n1)Nc1cc(C(F)(F)F)cc(C(F)(F)F)c1`
Result: one

Ask: Bin? `COc1cccc(-c2nc3sccn3c2-c2ccnc(NCCNC(=O)c3cc(N4CCOCC4)cc(C(F)(F)F)c3)n2)c1`
Result: three

###

Test system: NCI/ADR-RES
Test: Anticancer activity against human NCI/ADR-RES cells after 48 hrs by SRB assay
Type: functional
Listed here: items and their measured GI50.
Number in µM, nothing else.

Consider the following illustrative entries.
smi | unit_of_measurement | GI50
O=C(NCCNc1nccc(-c2c(-c3cccc(O)c3)nc3sccn23)n1)c1ccccc1O | µM | 5.05
O=C(NCCNc1nccc(-c2c(-c3cccc(O)c3)nc3sccn23)n1)c1ccccc1 | µM | 34.8
O=C(NCCNc1nccc(-c2c(-c3cccc(O)c3)nc3sccn23)n1)Nc1cccc(C(F)(F)F)c1 | µM | 26.9

Entry `COc1cccc(-c2nc3sccn3c2-c2ccnc(NCCNC(=O)Nc3cccc(C(F)(F)F)c3)n2)c1` — recorded GI50 = 3.45
